assay: Drug uptake in CD1 mouse liver at 5 mg/kg, po daily for 75 days; type: ADME, organism-based; design: dose 5 mg/kg, route oral; details: read-out: Drug uptake
property: concentration at 1800 h

So what's the measured concentration at 1800 h for this one? `COc1cc(NCc2ccc(O)cc2)c2nccc(C)c2c1Oc1cccc(C(F)(F)F)c1`
7.1 µM

###

test: Cytotoxicity against human MC65 cells by MTT assay; format: cell-based; conditions: read-out: TC50 (the source's name)
property: CC50 (µM)
Numbers only, in µM.

Known CC50 results, listed for orientation:
{"chemical.structure": "COc1cc(NCc2ccc(-c3ccccc3)s2)c2nccc(C)c2c1Oc1cccc(C(F)(F)F)c1", "property": "CC50", "unit.label": "µM", "recorded.result": 14.5}
{"chemical.structure": "COc1cc(NCCCN)c2nccc(C)c2c1Oc1cccc(F)c1", "property": "CC50", "unit.label": "µM", "recorded.result": 7.28}
{"chemical.structure": "COc1cc(NCCCN)c2nccc(C)c2c1Oc1cccc(C(F)(F)F)c1", "property": "CC50", "unit.label": "µM", "recorded.result": 2.1}
{"chemical.structure": "COc1cc(NCc2ccc(O)cc2)c2nccc(C)c2c1", "property": "CC50", "unit.label": "µM", "recorded.result": 20.5}
{"chemical.structure": "COc1cc(NCCCN)c2nccc(C)c2c1Oc1ccccc1", "property": "CC50", "unit.label": "µM", "recorded.result": 8.16}

Next item in the queue.
So what's the measured CC50 for this one? `COc1cc(CNc2cc(OC)c(Oc3cccc(C(F)(F)F)c3)c3c(C)ccnc23)cc(OC)c1O`
2.91
